Assay: Pharmacokinetics and tissue distribution in CD-1 mice
Type: in vivo
Details: female, mouse, plasma, IV 5 mg/kg
ASSAY READOUT: Cmax

COMPOUND | OBSERVED
O=C1C(NCc2ccccc2)=CC2=NCCc3c[nH]c1c32 [BA-TPQ] | 360 ng/mL

====

Experiment: Pharmacokinetics and tissue distribution in nude mice
Format: in vivo
Conditions: female, nude (nu/nu), mouse, kidneys, IV 5 mg/kg

COMPOUND | DISPLAY UNIT | clearance
O=C1C(NCc2ccccc2)=CC2=NCCc3c[nH]c1c32 [BA-TPQ] | mL/min/kg | 100

====

Assay: Pharmacokinetics and tissue distribution in CD-1 mice
Format: in vivo
Conditions: female, mouse, kidneys, IP 10 mg/kg
ASSAY READOUT: Cmax (ng/mL)

STRUCTURE SMILES STRING | DISPLAY UNIT | OBSERVED
O=C1C(NCc2ccccc2)=CC2=NCCc3c[nH]c1c32 | ng/mL | 8360
